Target: MCR-1 (Homo sapiens)
Construct: expressed in transfected cells; host or cells: HEK 293
Assay: Melanocortin receptor binding assay, competition with 125I-HP 467, HEK 293 cells expressing hMCR-1
Conditions: displacement of 125I-HP 467 at 10 μM isoquinoline compound; first of duplicate
Labelling field: enter True if recorded % Disp. MC-1 10 μM is less than 40%. Enter False if it equals or exceeds that cut-off.

INSERT INTO measurements (compound, class) VALUES
  ('NCCN1Cc2ccccc2C(CNC2CCCCC2)C1c1cc(O)cc(O)c1 (centres unmarked) [TRG 2405-29]', 'True'),
  ('COc1ccc(C2C(CNC3CCCCC3)c3ccccc3CN2CCN)c2ccccc12 (centres unmarked) [TRG 2405-68]', 'False'),
  ('CNC(CN)CN1Cc2ccccc2C(CNC2CCCCC2)C1c1ccc(CN)cc1 (centres unmarked) [TRG 2405-154]', 'False'),
  ('CNC(CN)CN1Cc2ccccc2C(CNC2CCCCC2)C1c1cccc(Oc2ccccc2)c1 (centres unmarked) [TRG 2405-140]', 'False'),
  ('NCCN1Cc2ccccc2C(CNC2CCCCC2)C1c1cccc2c1OCO2 (centres unmarked) [TRG 2405-8]', 'True'),
  ('CNC(CN)CN1Cc2ccccc2C(CNC2CCCCC2)C1c1cccn1C (mixture of isomers) [TRG 2405-94]', 'False'),
  ('NCCN1Cc2ccccc2C(CNC2CCCCC2)C1c1ccc(Cl)cc1Cl (centres unmarked) [TRG 2405-10]', 'False'),
  ('NCCN1Cc2ccccc2C(CNC2CCCCC2)C1c1ccco1 (centres unmarked) [TRG 2405-17]', 'True'),
  ('CNC(CN)CN1Cc2ccccc2C(CNC2CCCCC2)C1c1ccc([N+](=O)[O-])c(O)c1 (mixture of isomers) [TRG 2405-160]', 'True'),
  ('CNC(CN)CN1Cc2ccccc2C(CNC2CCCCC2)C1c1ccc([N+](=O)[O-])cc1 (mixture of isomers) [TRG 2405-161]', 'False'),
  ('CS(=O)(=O)c1ccc(C2C(CNC3CCCCC3)c3ccccc3CN2CCN)cc1 (centres unmarked) [TRG 2405-87]', 'True'),
  ('CN(C)c1ccc(C2C(CNC3CCCCC3)c3ccccc3CN2CCN)cc1 (centres unmarked) [TRG 2405-55]', 'True'),
  ('CNC(CN)CN1Cc2ccccc2C(CNC2CCCCC2)C1c1ccoc1 (centres unmarked) [TRG 2405-132]', 'False'),
  ('Cc1cccc(C2C(CNC3CCCCC3)c3ccccc3CN2CCN)n1 (centres unmarked) [TRG 2405-81]', 'True'),
  ('CNC(CN)CN1Cc2ccccc2C(CNC2CCCCC2)C1c1ccc(F)cc1 (centres unmarked) [TRG 2405-155]', 'False'),
  ('CNC(CN)CN1Cc2ccccc2C(CNC2CCCCC2)C1c1ccc(C)o1 (centres unmarked) [TRG 2405-169]', 'False'),
  ('Cc1cccc(C2C(CNC3CCCCC3)c3ccccc3CN2CCN)c1 (centres unmarked) [TRG 2405-47]', 'False');

---

Biological target: MCR-1 (Homo sapiens, UniProt Q01726)
Construct: expressed in transfected cells; host or cells: HEK 293
Sequence (Q01726 whole entry): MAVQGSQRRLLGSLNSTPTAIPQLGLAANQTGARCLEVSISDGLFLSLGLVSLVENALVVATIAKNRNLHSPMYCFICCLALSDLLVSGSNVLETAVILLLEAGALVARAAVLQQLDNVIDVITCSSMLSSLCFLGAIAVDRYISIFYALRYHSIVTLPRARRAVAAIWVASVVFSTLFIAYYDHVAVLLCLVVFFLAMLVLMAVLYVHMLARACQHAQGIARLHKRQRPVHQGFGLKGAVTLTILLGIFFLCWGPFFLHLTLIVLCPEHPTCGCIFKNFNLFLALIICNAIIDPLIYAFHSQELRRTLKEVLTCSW
Test: Melanocortin receptor binding assay, competition with 125I-HP 467, HEK 293 cells expressing hMCR-1
Conditions: 10 μM isoquinoline compound, HEK 293 cells expressing MCR-1, duplicate 1
Listed here: items and their measured % Disp. of 125I-HP 467 (first of duplicate).
Observed property: % Disp. of 125I-HP 467 (first of duplicate) (%)

INSERT INTO measurements (compound, study_system, unit_symbol, observed_measurement) VALUES
  ('CNC(CN)CCCCN1Cc2ccccc2C(CNC2CCCCC2)C1c1cccc(CN)c1 (stereo not shown)', 'MCR-1 (Homo sapiens, UniProt Q01726)', '%', 43.5),
  ('CNC(CN)CCCCN1Cc2ccccc2C(CNC2CCCCC2)C1c1cc2c3c(c1O)CCCN3CCC2 (stereo not shown)', 'MCR-1 (Homo sapiens, UniProt Q01726)', '%', 35),
  ('CNC(CN)CCCCN1Cc2ccccc2C(CNC2CCCCC2)C1c1cccc(Oc2ccccc2)c1 (stereo not shown)', 'MCR-1 (Homo sapiens, UniProt Q01726)', '%', 89.2),
  ('CN[C@H](CN)CCCCN1Cc2ccccc2C(CNC2CCCCC2)C1c1cccc2ccccc12 (stereo partly shown)', 'MCR-1 (Homo sapiens, UniProt Q01726)', '%', 68.1);
